- Tested on: MCF7
- METHOD_NOTES: Antiproliferative activity against human MCF7 cells assessed as inhibition of cell proliferation incubated for 48 hrs by CCK8 assay
- Type: functional, cell-based
- TEST_PARAMETERS: MCF7, 48 h
# 1 = IC50 below 20 µM (exclusive); 0 = IC50 at/above 20 µM

query: Regarding CC(=O)c1ccc(OCc2cn([C@H]3CC(=O)N4C[C@@H]5CCCN6CCC[C@@H]([C@H]56)[C@H]4C3)nn2)cc1O , kindly confirm whether its IC50 is beneath 20 µM.
result: 0

query: For COc1ccc(/C=C/C(=O)c2ccc(OCc3cn([C@H]4CC(=O)N5C[C@@H]6CCCN7CCC[C@@H]([C@H]67)[C@H]5C4)nn3)cc2O)cc1 , is the recorded IC50 below the cut-off of 20 µM?
result: 0

query: Consider the compound O=C(/C=C/c1ccccc1Cl)c1ccc(OCc2cn([C@H]3CC(=O)N4C[C@@H]5CCCN6CCC[C@@H]([C@H]56)[C@H]4C3)nn2)cc1 . Is its IC50 strictly less than 20 µM?
result: 0

query: Field: below-cutoff. Rule: recorded IC50 strictly less than 20 µM. Subject: O=C(/C=C/c1ccccc1)c1ccc(OCc2cn([C@H]3CC(=O)N4C[C@@H]5CCCN6CCC[C@@H]([C@H]56)[C@H]4C3)nn2)cc1
result: 1

query: Problem: For the compound O=C(/C=C/c1ccc(F)cc1)c1ccc(OCc2cn([C@H]3CC(=O)N4C[C@@H]5CCCN6CCC[C@@H]([C@H]56)[C@H]4C3)nn2)cc1 , is IC50 under 20 µM?
result: 0

query: Answer whether the compound C#CCOc1ccc(C(=O)/C=C/c2ccc(Cl)c(Cl)c2)cc1 has IC50 strictly less than 20 µM
result: 0

query: API: query returns whether the compound falls strictly under 20 µM in IC50. Query: O=C(/C=C/c1cccc(C(F)(F)F)c1)c1ccc(OCc2cn([C@H]3CC(=O)N4C[C@@H]5CCCN6CCC[C@@H]([C@H]56)[C@H]4C3)nn2)cc1O
result: 1

query: Given the entry O=C(/C=C/c1ccc([N+](=O)[O-])cc1)c1ccc(OCc2cn([C@H]3CC(=O)N4C[C@@H]5CCCN6CCC[C@@H]([C@H]56)[C@H]4C3)nn2)cc1 , would its reported IC50 be below 20 µM?
result: 1

query: Hello, is IC50 of the following compound strictly smaller than 20 µM? CC(=O)c1ccc(OCc2cn([C@H]3CC(=O)N4C[C@@H]5CCCN6CCC[C@@H]([C@H]56)[C@H]4C3)nn2)cc1
result: 0

query: Input C#CCOc1ccc(C(=O)/C=C/c2ccc(Cl)c(Cl)c2)c(O)c1 ; condition: IC50 strictly below 20 µM. Does it hold?
result: 0

query: Confirm or reject: IC50 of O=C1CCC[C@@H]2[C@H]3CCCN4CCC[C@@H](CN12)[C@@H]34 lies strictly below 20 µM
result: 0

query: Is it true that IC50 reported for Cc1ccc(/C=C/C(=O)c2ccc(OCc3cn([C@H]4CC(=O)N5C[C@@H]6CCCN7CCC[C@@H]([C@H]67)[C@H]5C4)nn3)cc2)cc1 is less than 20 µM?
result: 0

query: Identify whether the compound O=C(/C=C/c1ccc(Br)cc1)c1ccc(OCc2cn([C@H]3CC(=O)N4C[C@@H]5CCCN6CCC[C@@H]([C@H]56)[C@H]4C3)nn2)cc1 records IC50 below 20 µM.
result: 0

---

Assign pIC50 to each entry below.
- System: A549
- METHOD_NOTES: Antiproliferative activity against human A549 cells assessed as inhibition of cell proliferation incubated for 48 hrs by CCK8 assay
- Format: functional, cell-based
- TEST_PARAMETERS: A549, 48 h
pIC50: −log10 of the molar value.

Kindly note the recorded pIC50 for CC(=O)c1ccc(OCc2cn([C@H]3CC(=O)N4C[C@@H]5CCCN6CCC[C@@H]([C@H]56)[C@H]4C3)nn2)cc1O , which is < 4.30

Documented pIC50 of O=C(/C=C/c1ccc(Cl)cc1)c1ccc(OCc2cn([C@H]3CC(=O)N4C[C@@H]5CCCN6CCC[C@@H]([C@H]56)[C@H]4C3)nn2)cc1 : 4.72

// pIC50 value for Cc1ccc(/C=C/C(=O)c2ccc(OCc3cn([C@H]4CC(=O)N5C[C@@H]6CCCN7CCC[C@@H]([C@H]67)[C@H]5C4)nn3)cc2O)cc1 : < 4.30

// sample C#CCOc1ccc(C(=O)/C=C/c2ccc(Cl)c(Cl)c2)c(O)c1 , its pIC50 was < 4.30

Record COc1ccc(/C=C/C(=O)c2ccc(OCc3cn([C@H]4CC(=O)N5C[C@@H]6CCCN7CCC[C@@H]([C@H]67)[C@H]5C4)nn3)cc2O)cc1OC , field pIC50: < 4.30

GET /value?item= C#CCOc1ccc(C(=O)/C=C/c2cccc(Cl)c2)c(O)c1 &field=pIC50 returns < 4.30

pIC50 measured on O=C(/C=C/c1ccc(F)cc1)c1ccc(OCc2cn([C@H]3CC(=O)N4C[C@@H]5CCCN6CCC[C@@H]([C@H]56)[C@H]4C3)nn2)cc1O = 4.74

Looking up COc1ccc(/C=C/C(=O)c2ccc(OCc3cn([C@H]4CC(=O)N5C[C@@H]6CCCN7CCC[C@@H]([C@H]67)[C@H]5C4)nn3)cc2O)cc1 , I found its pIC50 recorded as < 4.30

So for C#CCOc1ccc(C(=O)/C=C/c2ccc(Cl)c(Cl)c2)cc1 , the logged pIC50 turned out to be < 4.30

The recorded pIC50 for COc1ccc(/C=C/C(=O)c2ccc(OCc3cn([C@H]4CC(=O)N5C[C@@H]6CCCN7CCC[C@@H]([C@H]67)[C@H]5C4)nn3)cc2)cc1 is < 4.30

The molecule listed as O=C(/C=C/c1ccc(Br)cc1)c1ccc(OCc2cn([C@H]3CC(=O)N4C[C@@H]5CCCN6CCC[C@@H]([C@H]56)[C@H]4C3)nn2)cc1 shows pIC50 equal to 4.61

Entry CC(=O)O[C@H]1C(=O)[C@@]2(C)[C@H]([C@H](OC(=O)c3ccccc3)[C@]3(O)C[C@H](OC(=O)[C@H](O)[C@@H](NC(=O)c4ccccc4)c4ccccc4)C(C)=C1C3(C)C)[C@]1(OC(C)=O)CO[C@@H]1C[C@@H]2O [PACLITAXEL] ; pIC50 = 5.55

---

- METHOD_NOTES: Antiproliferative activity against human Bel7402 cells assessed as inhibition of cell proliferation incubated for 48 hrs by CCK8 assay
- Format: functional, cell-based
- TEST_PARAMETERS: Bel-7402, 48 h
MEASURED_QUANTITY: pIC50
Interpret pIC50 as the negative base-10 log of the concentration measured in mol/L.

Short answer for O=C(/C=C/c1cccc(Cl)c1)c1ccc(OCc2cn([C@H]3CC(=O)N4C[C@@H]5CCCN6CCC[C@@H]([C@H]56)[C@H]4C3)nn2)cc1 : pIC50 was 4.86

Short answer for O=C(/C=C/c1ccccc1)c1ccc(OCc2cn([C@H]3CC(=O)N4C[C@@H]5CCCN6CCC[C@@H]([C@H]56)[C@H]4C3)nn2)cc1 : pIC50 was 4.68

Entry under test: O=C(/C=C/c1ccc(F)cc1)c1ccc(OCc2cn([C@H]3CC(=O)N4C[C@@H]5CCCN6CCC[C@@H]([C@H]56)[C@H]4C3)nn2)cc1 . Its pIC50 was 4.65

Lab note: O=C(/C=C/c1ccccc1)c1ccc(OCc2cn([C@H]3CC(=O)N4C[C@@H]5CCCN6CCC[C@@H]([C@H]56)[C@H]4C3)nn2)cc1O gave pIC50 of 4.76

---

- System: MCF7
- METHOD_NOTES: Antiproliferative activity against human MCF7 cells assessed as inhibition of cell proliferation incubated for 48 hrs by CCK8 assay
- Assay type: functional, cell-based
- TEST_PARAMETERS: MCF7, 48 h
pIC50: −log10 of the molar value.
Classify by measured pIC50: y if it is equal to or exceeds 5, n if it is smaller.

query: Tell me whether pIC50 is at least 5 here: C#CCOc1ccc(C(=O)/C=C/c2cccc(Cl)c2)c(O)c1
result: n

query: Would you say O=C(/C=C/c1cccc(Cl)c1)c1ccc(OCc2cn([C@H]3CC(=O)N4C[C@@H]5CCCN6CCC[C@@H]([C@H]56)[C@H]4C3)nn2)cc1O shows pIC50 at minimum 5?
result: y

query: Exam item: decide whether the reported pIC50 for C#CCOc1ccc(C(=O)/C=C/c2ccccc2)cc1 is at least 5.
result: n

query: Record O=C(/C=C/c1ccc(Cl)cc1)c1ccc(OCc2cn([C@H]3CC(=O)N4C[C@@H]5CCCN6CCC[C@@H]([C@H]56)[C@H]4C3)nn2)cc1 ; criterion: pIC50 no lower than 5. Met?
result: n

query: Could you verify whether the entry O=C(/C=C/c1ccc(Cl)c(Cl)c1)c1ccc(OCc2cn([C@H]3CC(=O)N4C[C@@H]5CCCN6CCC[C@@H]([C@H]56)[C@H]4C3)nn2)cc1O shows pIC50 of no less than 5?
result: y

query: Hi team, for C#CCOc1ccc(C(=O)/C=C/c2ccccc2)c(O)c1 , is the recorded pIC50 at or above 5?
result: n

query: Does the compound O=C(/C=C/c1ccc(F)cc1)c1ccc(OCc2cn([C@H]3CC(=O)N4C[C@@H]5CCCN6CCC[C@@H]([C@H]56)[C@H]4C3)nn2)cc1O have recorded pIC50 that is 5 or more?
result: y
